Molecular target: T1, recombinant mouse TfR-1, His-tagged (Sino Biological 50741-M07H) (mouse, UniProt Q62351 89-763)
T1 construct: bought; His-tagged; also called mTfR1; mTfR-1
T1 sequence (Q62351 89-763 limits assumed, stated change not applied): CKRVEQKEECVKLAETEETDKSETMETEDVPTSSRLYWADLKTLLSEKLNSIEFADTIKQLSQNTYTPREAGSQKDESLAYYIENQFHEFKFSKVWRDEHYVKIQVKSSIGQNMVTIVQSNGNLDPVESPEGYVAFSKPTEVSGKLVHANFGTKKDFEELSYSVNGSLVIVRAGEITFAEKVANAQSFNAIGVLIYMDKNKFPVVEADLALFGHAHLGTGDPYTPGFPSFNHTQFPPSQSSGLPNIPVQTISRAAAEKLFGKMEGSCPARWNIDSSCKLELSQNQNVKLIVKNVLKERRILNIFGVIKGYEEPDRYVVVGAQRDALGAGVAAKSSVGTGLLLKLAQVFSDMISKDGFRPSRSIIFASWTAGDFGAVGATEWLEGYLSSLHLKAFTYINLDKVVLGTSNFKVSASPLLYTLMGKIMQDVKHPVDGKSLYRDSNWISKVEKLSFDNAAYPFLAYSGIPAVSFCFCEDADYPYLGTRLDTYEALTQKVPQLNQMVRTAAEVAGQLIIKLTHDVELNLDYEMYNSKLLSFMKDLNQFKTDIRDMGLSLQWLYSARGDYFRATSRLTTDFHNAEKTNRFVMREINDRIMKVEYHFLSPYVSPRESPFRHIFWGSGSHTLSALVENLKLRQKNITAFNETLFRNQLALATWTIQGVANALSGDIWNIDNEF
Test: SPR, His-captured TfR1
Observation type: koff (s⁻¹)

// solved cases for koff follow
binder="Clone H variant 6 VNAR-hFc (Fc fusion, not shown: a dimerising Fc or GST) ARVDQTPQTITKETGESLTINCVLRDSNCELSSTYWYRKKSGSTNEESISKGGRYVETVNSGSKSFSLRINDLVVEDSGTYRCNVQQFPSRNNGRYWCDVYGGGTAVTVNA" observation_type=koff unit_symbol=s⁻¹ experimental_value=0.000417
binder="Clone H variant 4 VNAR-hFc (Fc fusion, not shown: a dimerising Fc or GST) ARVDQTPQTITKETGESLTINCVLRDSNCELSSTYWYRKKSGSTNEESISKGGRYVETVNSGSKSFSLRINDLVVEDSGTYRCNVQQFPSRFNGRYWCDVYGGGTAVTVNA" observation_type=koff unit_symbol=s⁻¹ experimental_value=0.000352
binder="Clone H variant 7 VNAR-hFc (Fc fusion, not shown: a dimerising Fc or GST) ARVDQTPQTITKETGESLTINCVLRDSNCELSSTYWYRKKSGSTNEESISKGGRYVETVNSGSKSFSLRINDLVVEDSGTYRCNVQQFPTRTNGRYWCDVYGGGTAVTVNA" observation_type=koff unit_symbol=s⁻¹ experimental_value=0.000399
binder="Clone H variant 8 VNAR-hFc (Fc fusion, not shown: a dimerising Fc or GST) ARVDQTPQTITKETGESLTINCVLRDSNCELSSTYWYRKKSGSTNEESISKGGRYVETVNSGSKSFSLRINDLVVEDSGTYRCNVQQFPSRHNGRYWCDVYGGGTAVTVNA" observation_type=koff unit_symbol=s⁻¹ experimental_value=0.000618
binder="Clone H VNAR-hFc fusion (Fc fusion, not shown: a dimerising Fc or GST, bivalent VNAR-Fc) ARVDQTPQTITKETGESLTINCVLRDSNCELSSTYWYRKKSGSTNEESISKGGRYVETVNSGSKSFSLRINDLVVEDSGTYRCNVQQFPSSSNGRYWCDVYGGGTAVTVNA" observation_type=koff unit_symbol=s⁻¹ experimental_value=9.11e-05
binder="Clone H variant 10 VNAR-hFc (Fc fusion, not shown: a dimerising Fc or GST, also called clone H var; 10) ARVDQTPQTITKETGESLTINCVLRDSNCELSSTYWYRKKSGSTNEESISKGGRYVETVNSGSKSFSLRINDLVVEDSGTYRCNVQQFPSWFNGRYWCDVYGGGTAVTVNA" observation_type=koff unit_symbol=s⁻¹ experimental_value=0.000279
binder="Clone H variant 1 VNAR-hFc (Fc fusion, not shown: a dimerising Fc or GST, also called clone H var) ARVDQTPQTITKETGESLTINCVLRDSNCELSSTYWYRKKSGSTNEESISKGGRYVETVNSGSKSFSLRINDLVVEDSGTYRCNVVQWPSSSNGRYWCDVYGGGTAVTVNA" observation_type=koff unit_symbol=s⁻¹ experimental_value=0.000195
binder="Clone H variant 5 VNAR-hFc (Fc fusion, not shown: a dimerising Fc or GST) ARVDQTPQTITKETGESLTINCVLRDSNCELSSTYWYRKKSGSTNEESISKGGRYVETVNSGSKSFSLRINDLVVEDSGTYRCNVQQFPNRWNGRYWCDVYGGGTAVTVNA" observation_type=koff unit_symbol=s⁻¹ experimental_value=0.000369

1 = Clone H variant 2 VNAR-hFc (Fc fusion, not shown: a dimerising Fc or GST) ARVDQTPQTITKETGESLTINCVLRDSNCELSSTYWYRKKSGSTNEESISKGGRYVETVNSGSKSFSLRINDLVVEDSGTYRCNVQQFPSSWPFRYWCDVYGGGTAVTVNA
2 = Clone H variant 3 VNAR-hFc (Fc fusion, not shown: a dimerising Fc or GST) ARVDQTPQTITKETGESLTINCVLRDSNCELSSTYWYRKKSGSTNEESISKGGRYVETVNSGSKSFSLRINDLVVEDSGTYRCNVQQFPSWGNGRYWCDVYGGGTAVTVNA
Q. Which is greater in koff, the first item 1 or the second item 2 ? Label of pick, please.
A. 1
(1: 0.000482 s⁻¹, 2: 0.000273 s⁻¹)
